Kindly state relative integration efficiency (log2) for each of the entries shown.
# System: VchCAST RNA-guided transposition machinery (E. coli BL21(DE3) host, lacZ target)
# Protocol Details: relative integration efficiency (T-RL orientation) vs wild-type transposon end (log2 (normalized fold change)); transposon end mutated: right end (5 bp flank + 75 bp right end); higher = more efficient transposition
Form: value (number only, do not type unit).

Per the record, ACATTTGTTGATACAACCATAAAATGATAATTACACCCAGCCCGGTCGCCGGCGACACAAACGCCCGGTCGCGGTAAGAGGATCATAGTCAGACCAACATTGCTACGACCCGTATTCGCACCGACAC has relative integration efficiency (log2) of -1.97

Per the record, ACATTTGTTGATACAACCATAAAATGATACGGCACAAACGCCCGGTCGCCGGCGACACAAACGCCCGGTCGCGGTAAGAGGATCATAGTCAGACCAACATTGCTACGACCCGTATTCGCACCGACAC has relative integration efficiency (log2) of -2.2

Per the record, ACATTTGTGGATACAACCATAAAATGATAATTACACCCATAAATTCATAATTATCACCCCCAATTTAACTATAACGCTCTGATCATAGTCAGACCAACATTGCTACGACCCGTATTCGCACCGACAC has relative integration efficiency (log2) of -1.64

Per the record, ACATTTGTTGATACAACCATAAAGTGATATTTACAACCATATATTGATATCTCTCACACCCATAAATTGATATTGCCTCTGATCATAGTCAGACCAACATTGCTACGACCCGTATTCGCACCGACAC has relative integration efficiency (log2) of -0.378

Data provenance: the supplement of paper PMC10201428
